Property: drug sensitivity score; scope: individual compounds
test system: ZR-75-1; assay: drug sensitivity score (DSS) (DSS (dimensionless)); higher = more sensitive; extreme values may be limits of the assay; conditions: 4-OH-tamoxifen in medium 0 µM; 72 h
Where a name gives a salt, the structure may show the parent alone.
Quantity Kind: drug sensitivity score

{"Compound": "CC[C@@H]1C(=O)N(C)c2cnc(Nc3ccc(C(=O)N[C@H]4CC[C@H](N5CCN(CC6CC6)CC5)CC4)cc3OC)nc2N1C(C)C", "Assayed Target": "ZR-75-1", "Quantity Kind": "drug sensitivity score", "Assay Value": 0}
{"Compound": "O=C(O)C1(C(=O)O)CCC1.[NH2-].[NH2-].[Pt+2]", "Assayed Target": "ZR-75-1", "Quantity Kind": "drug sensitivity score", "Assay Value": 0}
{"Compound": "N#CCNC(=O)c1ccc(-c2ccnc(Nc3ccc(N4CCOCC4)cc3)n2)cc1", "Assayed Target": "ZR-75-1", "Quantity Kind": "drug sensitivity score", "Assay Value": 0}
{"Compound": "Nc1ncn([C@@H]2O[C@H](CO)[C@@H](O)[C@H]2O)c(=O)n1", "Assayed Target": "ZR-75-1", "Quantity Kind": "drug sensitivity score", "Assay Value": 0.0144}
{"Compound": "CCN(CC)CCOc1ccc(C(=C(Cl)c2ccccc2)c2ccccc2)cc1 [Clomifene citrate]", "Assayed Target": "ZR-75-1", "Quantity Kind": "drug sensitivity score", "Assay Value": 0.493}
{"Compound": "C=C(c1ccc(C(=O)O)cc1)c1cc2c(cc1C)C(C)(C)CCC2(C)C", "Assayed Target": "ZR-75-1", "Quantity Kind": "drug sensitivity score", "Assay Value": 0.367}
{"Compound": "C[C@]12C=CC(=O)C=C1CC[C@@H]1[C@@H]2C(=O)C[C@@]2(C)[C@H]1CC[C@]2(O)C(=O)CO", "Assayed Target": "ZR-75-1", "Quantity Kind": "drug sensitivity score", "Assay Value": 0}
{"Compound": "CO[C@H]1C[C@@H]2CC[C@@H](C)[C@@](O)(O2)C(=O)C(=O)N2CCCC[C@H]2C(=O)O[C@H]([C@H](C)C[C@@H]2CC[C@@H](O)[C@H](OC)C2)CC(=O)[C@H](C)/C=C(\\C)[C@@H](O)[C@@H](OC)C(=O)[C@H](C)C[C@H](C)/C=C/C=C/C=C/1C [Sirolimus (Rapamycin)]", "Assayed Target": "ZR-75-1", "Quantity Kind": "drug sensitivity score", "Assay Value": 12.7}
{"Compound": "O=C(Nc1c[nH]nc1-c1nc2ccc(CN3CCOCC3)cc2[nH]1)NC1CC1", "Assayed Target": "ZR-75-1", "Quantity Kind": "drug sensitivity score", "Assay Value": 0}
{"Compound": "CN1CCc2c(c3ccccc3n2Cc2ccc(C(=O)NO)cc2)C1", "Assayed Target": "ZR-75-1", "Quantity Kind": "drug sensitivity score", "Assay Value": 0.27}
{"Compound": "COc1cc([C@@H]2c3cc4c(cc3[C@@H](O[C@@H]3O[C@@H]5CO[C@@H](C)O[C@H]5[C@H](O)[C@H]3O)[C@H]3COC(=O)[C@H]23)OCO4)cc(OC)c1O [Etoposide]", "Assayed Target": "ZR-75-1", "Quantity Kind": "drug sensitivity score", "Assay Value": 3.42}
{"Compound": "CC[C@]1(O)C[C@@H]2CN(CCc3c([nH]c4ccccc34)[C@@](C(=O)OC)(c3cc4c(cc3OC)N(C)[C@H]3[C@@](O)(C(=O)OC)[C@H](OC(C)=O)[C@]5(CC)C=CCN6CC[C@]43[C@@H]65)C2)C1", "Assayed Target": "ZR-75-1", "Quantity Kind": "drug sensitivity score", "Assay Value": 11.9}
{"Compound": "COc1cc2nccc(Oc3ccc(NC(=O)Nc4cc(C)on4)c(Cl)c3)c2cc1OC", "Assayed Target": "ZR-75-1", "Quantity Kind": "drug sensitivity score", "Assay Value": 0.0461}
{"Compound": "O=C1c2c(O)ccc(O)c2C(=O)c2c(NCCNCCO)ccc(NCCNCCO)c21", "Assayed Target": "ZR-75-1", "Quantity Kind": "drug sensitivity score", "Assay Value": 3.03}
{"Compound": "O=C1CN2Cc3c(ccc(Cl)c3Cl)N=C2N1 [Anagrelide]", "Assayed Target": "ZR-75-1", "Quantity Kind": "drug sensitivity score", "Assay Value": 0}
{"Compound": "CC[C@@]1(O)C(=O)OCc2c1cc1n(c2=O)Cc2cc3c(CN(C)C)c(O)ccc3nc2-1", "Assayed Target": "ZR-75-1", "Quantity Kind": "drug sensitivity score", "Assay Value": 5.48}
{"Compound": "CN(C)c1nc(N(C)C)nc(N(C)C)n1", "Assayed Target": "ZR-75-1", "Quantity Kind": "drug sensitivity score", "Assay Value": 0}
{"Compound": "Nc1cccc2c1CN(C1CCC(=O)NC1=O)C2=O (stereo unspecified) [Lenalidomide]", "Assayed Target": "ZR-75-1", "Quantity Kind": "drug sensitivity score", "Assay Value": 0}
{"Compound": "CC(C)n1nc(-c2ccc3oc(N)nc3c2)c2c(N)ncnc21", "Assayed Target": "ZR-75-1", "Quantity Kind": "drug sensitivity score", "Assay Value": 16.1}
{"Compound": "COC(=O)c1ccc2c(c1)NC(=O)/C2=C(\\Nc1ccc(N(C)C(=O)CN2CCN(C)CC2)cc1)c1ccccc1", "Assayed Target": "ZR-75-1", "Quantity Kind": "drug sensitivity score", "Assay Value": 0}
{"Compound": "C#Cc1cccc(Nc2ncnc3cc(OCCOC)c(OCCOC)cc23)c1", "Assayed Target": "ZR-75-1", "Quantity Kind": "drug sensitivity score", "Assay Value": 0}
{"Compound": "COc1cccc2c1C(=O)c1c(O)c3c(c(O)c1C2=O)C[C@@](O)(C(C)=O)C[C@@H]3O[C@H]1C[C@H](N)[C@H](O)[C@H](C)O1", "Assayed Target": "ZR-75-1", "Quantity Kind": "drug sensitivity score", "Assay Value": 6.15}
{"Compound": "O=c1[nH]cc(F)c(=O)[nH]1", "Assayed Target": "ZR-75-1", "Quantity Kind": "drug sensitivity score", "Assay Value": 1.39}
{"Compound": "O=C(Cc1ccc(-c2ccc(OCCN3CCOCC3)cc2)cn1)NCc1ccccc1", "Assayed Target": "ZR-75-1", "Quantity Kind": "drug sensitivity score", "Assay Value": 11.5}
{"Compound": "CC(C)(C#N)c1cc(Cn2cncn2)cc(C(C)(C)C#N)c1", "Assayed Target": "ZR-75-1", "Quantity Kind": "drug sensitivity score", "Assay Value": 0}
{"Compound": "Cc1[nH]c2ccccc2c1CCNCc1ccc(/C=C/C(=O)NO)cc1", "Assayed Target": "ZR-75-1", "Quantity Kind": "drug sensitivity score", "Assay Value": 8.15}
{"Compound": "CNCc1ccc(-c2[nH]c3cc(F)cc4c3c2CCNC4=O)cc1", "Assayed Target": "ZR-75-1", "Quantity Kind": "drug sensitivity score", "Assay Value": 0}
{"Compound": "CNC(=O)c1ccc(N2C(=S)N(c3ccc(C#N)c(C(F)(F)F)c3)C(=O)C23CCC3)cc1F", "Assayed Target": "ZR-75-1", "Quantity Kind": "drug sensitivity score", "Assay Value": 0}
{"Compound": "N#Cc1ccc(C(c2ccc(C#N)cc2)n2cncn2)cc1", "Assayed Target": "ZR-75-1", "Quantity Kind": "drug sensitivity score", "Assay Value": 0}
{"Compound": "NCCCNCCSP(=O)(O)O", "Assayed Target": "ZR-75-1", "Quantity Kind": "drug sensitivity score", "Assay Value": 0}
{"Compound": "O=P1(N(CCCl)CCCl)NCCCO1 (stereo unspecified) [Clafen (Cyclophosphamide, Endoxan)]", "Assayed Target": "ZR-75-1", "Quantity Kind": "drug sensitivity score", "Assay Value": 0}
